- test.method.notes: Therapeutic index, ratio of CC50 of human Hep2 cells to EC50 for antiviral activity against human respiratory syncytial virus long strain infected in human Hep2 cells after 5 days by CCK-8 assay
- Format: toxicity, cell-based
- test.parameters: HEp-2 cells, read-out: Ratio CC50/EC50

>  <structure.smiles>
Cc1ccc2nc(N3CCS(=O)(=O)c4ccc(O)cc4C3)cc(NCC3(N)COC3)c2c1

>  <selectivity ratio at 120 h>
> 125000

$$$$
>  <structure.smiles>
Cc1cc2c(NCC3(N)COC3)cc(N3CCS(=O)(=O)c4ccccc4C3)nc2cc1F

>  <selectivity ratio at 120 h>
3050

$$$$
>  <structure.smiles>
Cc1ccc2cc(N3CCS(=O)(=O)c4ccccc4C3)nc(NCC3(N)COC3)c2c1

>  <selectivity ratio at 120 h>
370

$$$$
>  <structure.smiles>
COc1ccc2c(c1)S(=O)(=O)CCN(c1cc(NCC3(N)COC3)c3cc(C)ccc3n1)C2

>  <selectivity ratio at 120 h>
92000

$$$$
